Test system: MOLT-4 leukemia
Assay: NCI tumour cell line growth inhibition, 48 h
# Lookup of reported TGI keyed by entry

Completed entries (count: 5):
# molecule, target-or-system, observed-measurement
data = [
    ("Cc1cc(C(O)(c2ccc(Nc3ccccc3)cc2)c2ccc(Nc3ccc(S(=O)(=O)O)cc3)cc2)ccc1N (stereo unspecified)", "MOLT-4 leukemia", "> 100 µM"),
    ("Fc1cccc(C2SCc3nc4cc5ccccc5cc4n32)c1 (stereo unspecified)", "MOLT-4 leukemia", "> 100 µM"),
    ("O=C(c1ccccc1)C(Nc1ccc2ccccc2c1)c1ccccc1 (stereo unspecified)", "MOLT-4 leukemia", "> 75.6 µM"),
    ("COC(=O)CC(CNC(=O)OCc1ccccc1)OCc1ccc(OC)cc1 (stereo unspecified)", "MOLT-4 leukemia", "> 100 µM"),
    ("O=c1c(O)cc2c(O)oc3c(=O)c(O)c(O)c4c(O)oc1c2c43", "MOLT-4 leukemia", "72.2 µM"),
]

Bench note: what TGI did CN(C)CC1CCCCCCCCCCCCC(CN(C)C)C1=O (stereo unspecified) show?
20.8 µM

Bench note: what TGI did CCOC(=O)C1=CNC(C(=O)OCC)C1c1cccn1-c1ccccc1 (stereo unspecified) show?
47.3 µM

Bench note: what TGI did "CC(CNC(=O)c1ccccc1)(CNC(=O)c1ccccc1)[N+](=O)[O-]" show?
> 100 µM

* * *

In what follows, each item is paired with its GI50 for U251 CNS.

Completed entries (count: 6):
# compound, property-measured, observed-measurement
measured = [
    ("O=C(NS(=O)(=O)c1ccc(NC[C@H]2COCCO2)c([N+](=O)[O-])c1)c1ccc(N2CCN(CC3=C(c4ccc(Cl)cc4)CC4(CCC4)CC3)CC2)cc1Oc1cnc2[nH]ccc2c1", "GI50", "2.19 µM"),
    ("O=C([O-])CCc1ccccc1.O=C([O-])CCc1ccccc1.O=C([O-])CCc1ccccc1.O=C([O-])CCc1ccccc1.[Mo+2].[Mo+2]", "GI50", "> 100 µM"),
    ("O=C1C(=C([O-])c2ccccc2)C(=O)c2ccccc21.O=C1C(=C([O-])c2ccccc2)C(=O)c2ccccc21.[Co+2]", "GI50", "> 100 µM"),
    ("Oc1ccc(Cc2ccc(O)c(C3CC(c4ccc(Cl)cc4)=NN3)c2)cc1C1CC(c2ccc(Cl)cc2)=NN1 (configuration not stated)", "GI50", "2.06 µM"),
    ("CCCCCCc1cc2cc(-c3csc(/C=C/c4ccccc4)n3)c(=O)oc2cc1O", "GI50", "2.91 µM"),
    ("CCCOc1ccc(/C=N/Nc2cc(C)nc3ccc(Cl)cc23)cc1", "GI50", "2.05 µM"),
]

Bench note: what GI50 did "FC(F)(F)c1ccc(-c2ncc(-c3ccc(C(F)(F)F)cc3)c(NCc3cc(C(F)(F)F)cc(C(F)(F)F)c3)n2)cc1" show?
3.57 µM

* * *

Test system: NCI-H23 lung
Assay: NCI tumour cell line growth inhibition, 48 h
property-measured: TGI

Completed entries (count: 3):
# molecule, TGI
measured = [
    ("COc1ccc(-n2c(Cn3nnc(-c4cccnc4)n3)nn(C3OC(COC(=O)c4ccccc4)C(OC(=O)c4ccccc4)C3OC(=O)c3ccccc3)c2=S)cc1 (configuration not stated)", "> 100 µM"),
    ("Cc1cc(=O)oc2cc(OC(=O)Nc3ccccc3)ccc12", "> 100 µM"),
    ("C=C(CN1CCN(c2ccccc2C(F)(F)F)CC1)c1ccc(C(=O)Nc2ccccc2N)cc1", "> 100 µM"),
]

Bench note: what TGI did C=C(COC(C)=O)CC(/C=C(\C)CC/C=C(\C)CO)OC(C)=O (configuration not stated) show?
> 100 µM

Bench note: what TGI did "COc1ccc2[nH]c3c4c(cc(-c5ccccc5)c3c2c1)C(=O)N(c1ccccc1)C4=O" show?
98.6 µM

Bench note: what TGI did "Cc1cc(C)c(S(=O)(=O)N(CCCN)OCCON(CCCN)S(=O)(=O)c2c(C)cc(C)cc2C)c(C)c1" show?
7.11 µM

Bench note: what TGI did "O=[N+]([O-])/C=C/c1cc2ccc3ccccc3c2[nH]1" show?
5.07 µM

Bench note: what TGI did "O=C(Nc1ccc(I)cc1)c1cccc([N+](=O)[O-])c1O" show?
8 µM

Bench note: what TGI did CN1C(C)(C)CC(=O)C(Br)C1(C)C (configuration not stated) show?
> 100 µM

Bench note: what TGI did "COc1cc(/C=C/C(=O)c2c(C)nc3ccccc3c2C)ccc1OCCCCOc1cc2c(cc1OC)C(=O)N1CCC[C@H]1C=N2" show?
1.42 µM

Bench note: what TGI did C=CC(OC(=O)C(C)C)c1ccc(OC(=O)C(C)C)cc1 (configuration not stated) show?
51.4 µM

Bench note: what TGI did "CCCOc1ccc(/C=N/Nc2cc(C)nc3ccc(Cl)cc23)cc1" show?
3.52 µM

* * *

# Lookup of reported GI50 keyed by entry
Test system: MDA-MB-231 breast
Test: NCI tumour cell line growth inhibition, 48 h

Completed entries (count: 9):
# compound, GI50
measured = [
    ("N#C/C(=C\\c1ccc(F)cc1)n1nc2cccc(F)c2n1", "5.55 µM"),
    ("COc1cc2c3c(n(CCCN4CCCNCC4)c(=O)c2cc1OC)-c1cc2c(cc1C3=O)OCO2", "1.06 µM"),
    ("Brc1ccc(Nc2nc3ccccc3nc2Nc2ccc(Br)cc2)cc1", "1.46 µM"),
    ("NC(=O)CCc1ccccc1Oc1nccc(-c2c(-c3ccc(F)cc3)ncn2C2CCNCC2)n1", "> 25 µM"),
    ("CN(CSc1ccc(Cl)cc1)c1ccc(CSc2ccc(Cl)cc2)cc1", "1.8 µM"),
    ("C=C(CN1CCN(c2ccccc2C(F)(F)F)CC1)c1ccc(C(=O)Nc2ccccc2N)cc1", "4.68 µM"),
    ("NC(=N\\N=C/c1ccc(Cl)cc1Cl)/C(N)=N\\N=C/c1ccc(Cl)cc1Cl", "17.1 µM"),
    ("NCCCNc1nc2ccc(Cl)cc2c2c(=O)c3cc(F)ccc3sc12", "1.78 µM"),
    ("O=c1[nH]c(F)nc2c1ncn2C1OC(CO)C(O)C1O (stereo not given)", "> 100 µM"),
]

Proceed to the following item.
Bench note: what GI50 did "O=C(c1cccs1)c1nc2cc(Cl)ccc2[n+]([O-])c1C(F)(F)F" show?
> 100 µM

* * *

Test system: M14 melanoma
Assay: NCI tumour cell line growth inhibition, 48 h
# Lookup of reported TGI keyed by entry

# molecule, observed-measurement
data = [
    ("Cc1cccc2c1c(=O)c1c(O)cc3c(c1n2C)C=CC(C)(C)O3", "> 100 µM"),
    ("O=C1CCN2C(=N1)Sc1ccccc12", "> 100 µM"),
    ("NC(Cc1ccccc1)c1nn[nH]n1 (configuration not stated)", "> 100 µM"),
    ("CC1(C)SCc2nc3ccccc3n21", "> 100 µM"),
    ("Cc1ccc(S(=O)(=O)ON2C(=O)c3c(N)c(C#N)c(-c4ccccc4)c(-c4ccccc4)c3C2=O)cc1", "29.5 µM"),
]

Bench note: what TGI did COc1cc(C2C(C(=O)O)=C(COC(C)=O)Oc3cc4c(cc32)OCO4)cc(OC)c1OC(C)=O (configuration not stated) show?
> 100 µM

Bench note: what TGI did "CC(CNC(=O)c1ccccc1)(CNC(=O)c1ccccc1)[N+](=O)[O-]" show?
> 100 µM

Bench note: what TGI did "Cn1nc(-c2ccccc2)c2c(-c3ccccc3)c3cc(Cl)ccc3nc21" show?
> 100 µM

Bench note: what TGI did "CCc1ccc(Nc2cc(=O)n(C)c(SCc3ccccc3)n2)cc1" show?
> 100 µM

Bench note: what TGI did Fc1cccc(C2SCc3nc4cc5ccccc5cc4n32)c1 (configuration not stated) show?
> 100 µM

* * *

Test system: NCI-H522 lung
Assay: NCI tumour cell line growth inhibition, 48 h
# Lookup of reported TGI keyed by entry

Completed entries (count: 3):
# molecule, target-or-system, observed-measurement
records = [
    ("C=CCC12CCC(=O)[C@@]1(C)CC=C(O)C2=O (stereo not given in full)", "NCI-H522 lung", "> 100 µM"),
    ("O=C(c1cccs1)c1nc2cc(Cl)ccc2[n+]([O-])c1C(F)(F)F", "NCI-H522 lung", "> 100 µM"),
    ("N#CCC1C2CC3C(C2=O)C13 (stereo not given)", "NCI-H522 lung", "> 100 µM"),
]

Bench note: what TGI did "O=C1C(=C([O-])c2ccccc2)C(=O)c2ccccc21.O=C1C(=C([O-])c2ccccc2)C(=O)c2ccccc21.[Co+2]" show?
> 100 µM

Bench note: what TGI did "COc1ccc(/C=C/C(=O)c2ccc(Nc3nc(Nc4ccc(F)cc4)nc(Nc4ccc(Cl)cc4)n3)cc2)cc1" show?
> 100 µM

Bench note: what TGI did "Cn1c2cc([N+](=O)[O-])ccc2c(=O)c2c(O)cc3c(c21)C=CC(C)(C)O3" show?
> 100 µM

Bench note: what TGI did "O=C(O)c1ccc(Oc2nc3ccccc3s2)cc1" show?
> 100 µM

Bench note: what TGI did "NCCCn1c2c(c3ccc([N+](=O)[O-])cc3c1=O)C(=O)c1cc(F)ccc1-2" show?
0.116 µM

Bench note: what TGI did "C/C(=N/NC(=S)N1CC2CCC(CC2)C1)c1cnccn1" show?
10.1 µM

Bench note: what TGI did "O=C(Oc1c(Br)cc(Br)cc1C(=O)Oc1ccccc1)C(=O)Oc1c(Br)cc(Br)cc1C(=O)Oc1ccccc1" show?
32.6 µM
